Ref: ChEMBL document CHEMBL4837181

- TESTED_ON: CYP3A4 (Homo sapiens, UniProt P08684)
- Sequence (P08684 whole entry): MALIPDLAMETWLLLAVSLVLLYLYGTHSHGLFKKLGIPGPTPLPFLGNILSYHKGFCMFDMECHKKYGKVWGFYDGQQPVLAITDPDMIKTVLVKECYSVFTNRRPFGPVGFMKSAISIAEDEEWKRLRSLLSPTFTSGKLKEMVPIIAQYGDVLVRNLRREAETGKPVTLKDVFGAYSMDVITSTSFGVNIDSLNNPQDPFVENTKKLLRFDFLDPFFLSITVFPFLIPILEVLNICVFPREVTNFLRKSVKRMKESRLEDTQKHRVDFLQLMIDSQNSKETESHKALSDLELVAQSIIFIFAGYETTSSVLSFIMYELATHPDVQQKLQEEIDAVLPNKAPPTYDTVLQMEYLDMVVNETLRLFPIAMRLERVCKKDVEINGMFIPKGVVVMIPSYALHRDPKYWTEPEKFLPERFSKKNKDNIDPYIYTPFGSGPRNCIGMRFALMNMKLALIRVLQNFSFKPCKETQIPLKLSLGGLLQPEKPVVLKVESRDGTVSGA
- TEST_DETAILS: Time dependent inhibition of CYP3A4 in human hepatocytes assessed as fold shift relative to control
- Assay type: ADME, cell-based, Hepatocyte
- EXPERIMENTAL_CONTEXT: read-out: FC

| SMILES_TEXT | IC50 shift |
| --- | --- |
| CCOC(=O)[C@@H](Cc1cn(C)c2ccccc12)NC(=O)[C@@H](N)CC(C)C.Cl | 7 |

###

- TEST_DETAILS: AUC (0 to 24 hrs) in female cynomolgus monkey at 150 mg/kg, po BID measured on day 8
- Format: ADME, organism-based, Macaca fascicularis
- Parameters: time < 24 hr, route oral, dose 150 mg/kg
- EXPERIMENTAL_CONTEXT: in vivo

| SMILES_TEXT | AUC at 24 h |
| --- | --- |
| Cn1cc(C[C@@H](N)C(=O)O)c2ccccc21 | 403 µM·h |
| CCOC(=O)[C@@H](Cc1cn(C)c2ccccc12)NC(=O)[C@@H](N)CC(C)C.Cl | 0.057 µM·h |

###

- TEST_DETAILS: Change in normalised AUCinfinity in rat at 10 mg/kg, po measured upto 72 hrs by LC-MS/MS analysis
- Type: ADME, organism-based
- EXPERIMENTAL_CONTEXT: in vivo
As shown below, each of these compounds has a reported Activity value.
REPORTED_ENDPOINT: Activity (%)

| COMPOUND | VALUE_MEASURED |
| --- | --- |
| Cl.Cn1cc(C[C@@H](NC(=O)[C@@H](N)CCCCN)C(=O)O)c2ccccc21 | 56 |
| C[C@H](N)C(=O)N[C@H](Cc1cn(C)c2ccccc12)C(=O)O.Cl | -39 |
| CN(C)CCOC(=O)[C@H](N)Cc1cn(C)c2ccccc12.Cl | 44 |
| Cl.Cn1cc(C[C@@H](NC(=O)[C@@H](N)CCC(=O)O)C(=O)O)c2ccccc21 | 13 |
| CCOC(=O)[C@@H](Cc1cn(C)c2ccccc12)NC(=O)[C@@H](N)CCC(N)=O.Cl | 58 |
| CC(C)C[C@H](N)C(=O)N[C@H](Cc1cn(C)c2ccccc12)C(=O)O.Cl | 21 |
| CC[C@H](C)[C@H](N)C(=O)N[C@H](Cc1cn(C)c2ccccc12)C(=O)O.Cl | -38 |
| Cl.Cn1cc(C[C@@H](N)C(=O)OCC(O)CO)c2ccccc21 (some centres undefined) | 17 |
| Cl.Cn1cc(C[C@@H](N)C(=O)OCC(N)C(=O)O)c2ccccc21 (single isomer, unassigned) | 16 |

###

- TEST_DETAILS: Half life in female cynomolgus monkey at 675 mg/kg, po measured on day 1
- Assay type: ADME, organism-based, Macaca fascicularis
- EXPERIMENTAL_CONTEXT: in vivo

| SMILES_TEXT | half-life |
| --- | --- |
| CC(C)C[C@H](N)C(=O)N[C@H](Cc1cn(C)c2ccccc12)C(=O)O | 492 min |
| Cn1cc(C[C@@H](N)C(=O)O)c2ccccc21 | 612 min |
| CCOC(=O)[C@@H](Cc1cn(C)c2ccccc12)NC(=O)[C@@H](N)CC(C)C.Cl | 582 min |

###

As shown below, each of these molecules has a reported remaining at 2 h value.
- TEST_DETAILS: Stability in mouse plasma assessed as parent compound remaining measured after 2 hrs by LC-MS/MS analysis
- Format: ADME, cell-free
- EXPERIMENTAL_CONTEXT: read-out: Stabilty
REPORTED_ENDPOINT: remaining at 2 h (%)

| MOLECULE | OUTPUT_UNIT | VALUE_MEASURED |
| --- | --- | --- |
| CN(C)CCOC(=O)[C@H](N)Cc1cn(C)c2ccccc12.Cl | % | 0 |
| CC[C@H](C)[C@H](N)C(=O)N[C@H](Cc1cn(C)c2ccccc12)C(=O)O.Cl | % | 80 |
| CC(C)[C@H](N)C(=O)N[C@H](Cc1cn(C)c2ccccc12)C(=O)O.Cl | % | 57 |
| Cl.Cn1cc(C[C@@H](N)C(=O)OCc2ccccc2)c2ccccc21 | % | 0 |
| Cl.Cn1cc(C[C@@H](N)C(=O)OCCC2CCNCC2)c2ccccc21 | % | 0 |
| Cl.Cn1cc(C[C@@H](NC(=O)[C@@H](N)CCC(N)=O)C(=O)O)c2ccccc21 | % | 49 |
| Cl.Cn1cc(C[C@@H](N)C(=O)OCC(N)C(=O)O)c2ccccc21 (single isomer, unassigned) | % | 80 |
| Cl.Cn1cc(C[C@@H](NC(=O)[C@@H](N)CCC(=O)O)C(=O)O)c2ccccc21 | % | 100 |
| CCOC(=O)[C@@H](Cc1cn(C)c2ccccc12)NC(=O)[C@@H](N)CCC(N)=O.Cl | % | 0 |

###

As shown below, each of these molecules has a reported Cmax value.
- TEST_DETAILS: Cmax in female cynomolgus monkey at 75 mg/kg, po BID measured on day 8
- Type: ADME, organism-based, Macaca fascicularis
- Parameters: route oral, dose 75 mg/kg
- EXPERIMENTAL_CONTEXT: in vivo

| SMILES_TEXT | OUTPUT_UNIT | Cmax |
| --- | --- | --- |
| Cn1cc(C[C@@H](N)C(=O)O)c2ccccc21 | µM | 59.3 |
| CCOC(=O)[C@@H](Cc1cn(C)c2ccccc12)NC(=O)[C@@H](N)CC(C)C.Cl | µM | 0.00971 |

###

- TEST_DETAILS: AUC (0 to 24 hrs) at steady state in […] at 1200 mg, BID
- Format: ADME
- Parameters: time < 24 hr, dose 1200 mg
- EXPERIMENTAL_CONTEXT: in vivo
REPORTED_ENDPOINT: AUC at 24 h

| SMILES_TEXT | REPORTED_ENDPOINT | VALUE_MEASURED |
| --- | --- | --- |
| Cn1cc(C[C@@H](N)C(=O)O)c2ccccc21 | AUC at 24 h | 240 µM·h |

###

- TEST_DETAILS: Solubility of compound at pH 7.4
- Assay type: physicochemical
- EXPERIMENTAL_CONTEXT: buffer

| SMILES_TEXT | solubility |
| --- | --- |
| Cn1cc(C[C@@H](N)C(=O)O)c2ccccc21 | < 2000 µg/mL |

###

- TEST_DETAILS: Chemical stability of compound in PBS buffer assessed as compound remaining at pH 7.4 at 5 uM measured after 24 hrs by LC-MS/MS analysis
- Assay type: physicochemical
- EXPERIMENTAL_CONTEXT: read-out: Stabilty
Where a SMILES comes first, the peptide text is derived from it. [ ]: non-standard residue; d: D form. dTrp(1-Me) = Cn1cc(C[C@@H](N)C(=O)O)c2ccccc21
Threshold-based label: remaining at 24 h, 5 µM under 60% gives condition met, remaining at 24 h, 5 µM not under 60% gives condition not met.

| MOLECULE | CLASSIFICATION |
| --- | --- |
| CC(C)C[C@H](N)C(=O)N[C@H](Cc1cn(C)c2ccccc12)C(=O)O.Cl | condition not met |
| Cl.Cn1cc(C[C@@H](N)C(=O)OCC2CCNCC2)c2ccccc21 | condition met |
| Cl.Cn1cc(C[C@@H](NC(=O)CN)C(=O)O)c2ccccc21 (H-Gly-[dTrp(1-Me)]-OH) | condition not met |
| CCOC(=O)[C@@H](Cc1cn(C)c2ccccc12)NC(=O)[C@@H](N)Cc1ccccc1.Cl | condition not met |
| Cl.Cn1cc(C[C@@H](NC(=O)[C@@H](N)Cc2ccccc2)C(=O)O)c2ccccc21 | condition not met |
| CN(C)CCOC(=O)[C@H](N)Cc1cn(C)c2ccccc12.Cl | condition met |
| CC(C)C(NC(=O)[C@H](N)Cc1cn(C)c2ccccc12)C(=O)O.Cl (single isomer, unassigned) | condition met |
| CCOC(=O)[C@@H](Cc1cn(C)c2ccccc12)NC(=O)[C@@H](N)[C@@H](C)CC.Cl | condition not met |
| Cl.Cn1cc(C[C@@H](N)C(=O)OCC(O)CO)c2ccccc21 (stereo not given in full) | condition met |
| Cl.Cn1cc(C[C@@H](N)C(=O)OCC(N)C(=O)O)c2ccccc21 (single isomer, unassigned) | condition met |

###

- TEST_DETAILS: Chemical stability of compound in PBS buffer assessed as compound remaining at pH 7.4 at 5 uM measured after 24 hrs by LC-MS/MS analysis
- Assay type: physicochemical
- EXPERIMENTAL_CONTEXT: read-out: Stabilty
REPORTED_ENDPOINT: remaining at 24 h, 5 µM (%)

| SMILES_TEXT | REPORTED_ENDPOINT | VALUE_MEASURED |
| --- | --- | --- |
| Cl.Cn1cc(C[C@@H](N)C(=O)OCCC2CCOCC2)c2ccccc21 | remaining at 24 h, 5 µM | 0 |
| CC(C)[C@H](N)C(=O)N[C@H](Cc1cn(C)c2ccccc12)C(=O)O.Cl | remaining at 24 h, 5 µM | 44 |
| Cl.Cn1cc(C[C@@H](NC(=O)[C@@H](N)Cc2c[nH]c3ccccc23)C(=O)O)c2ccccc21 | remaining at 24 h, 5 µM | 33 |
| CCOC(=O)[C@@H](Cc1cn(C)c2ccccc12)NC(=O)[C@@H](N)CC(C)C.Cl | remaining at 24 h, 5 µM | 48 |
| Cl.Cn1cc(C[C@@H](NC(=O)[C@@H](N)CCCCN)C(=O)O)c2ccccc21 | remaining at 24 h, 5 µM | 57 |
| Cl.Cn1cc(C[C@@H](NC(=O)[C@@H](N)CCC(N)=O)C(=O)O)c2ccccc21 | remaining at 24 h, 5 µM | 74 |
| Cl.Cn1cc(C[C@@H](N)C(=O)OCCC2CCNCC2)c2ccccc21 | remaining at 24 h, 5 µM | 22 |
| Cl.Cn1cc(C[C@@H](NC(=O)[C@@H](N)CCC(=O)O)C(=O)O)c2ccccc21 | remaining at 24 h, 5 µM | 60 |
| Cl.Cn1cc(C[C@@H](NC(=O)[C@H](N)Cc2c[nH]c3ccccc23)C(=O)O)c2ccccc21 | remaining at 24 h, 5 µM | 45 |
